Reported inhibition values for the following compounds.
Biological target: Amyloid-beta precursor protein (Homo sapiens) (UniProt P05067)
Sequence (P05067 whole entry): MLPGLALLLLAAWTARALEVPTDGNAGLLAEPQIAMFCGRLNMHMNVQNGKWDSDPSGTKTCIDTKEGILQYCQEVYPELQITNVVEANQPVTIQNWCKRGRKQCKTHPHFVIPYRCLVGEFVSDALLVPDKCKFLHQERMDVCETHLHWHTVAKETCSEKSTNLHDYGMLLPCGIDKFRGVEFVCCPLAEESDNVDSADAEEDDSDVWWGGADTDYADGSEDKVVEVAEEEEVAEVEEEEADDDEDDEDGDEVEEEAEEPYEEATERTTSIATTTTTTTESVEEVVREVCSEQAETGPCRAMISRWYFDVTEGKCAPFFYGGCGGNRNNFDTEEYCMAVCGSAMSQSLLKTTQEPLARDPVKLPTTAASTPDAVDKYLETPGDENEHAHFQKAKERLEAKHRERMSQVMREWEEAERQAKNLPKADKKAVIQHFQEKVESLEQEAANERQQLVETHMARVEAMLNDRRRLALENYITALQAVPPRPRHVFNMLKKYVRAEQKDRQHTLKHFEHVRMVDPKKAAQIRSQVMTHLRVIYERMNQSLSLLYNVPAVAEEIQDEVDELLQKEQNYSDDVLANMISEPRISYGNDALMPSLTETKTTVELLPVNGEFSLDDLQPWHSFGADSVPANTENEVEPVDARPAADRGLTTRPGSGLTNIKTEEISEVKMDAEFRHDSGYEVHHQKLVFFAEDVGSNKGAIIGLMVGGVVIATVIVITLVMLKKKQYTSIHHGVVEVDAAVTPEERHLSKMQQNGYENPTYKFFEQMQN
Test: Inhibition of amyloid beta (1 to 42) (unknown origin) self-induced aggregation at 20 uM after 46 to 48 hrs by thioflavin-T fluorescence method
Record the value in %, omitting the unit from your answer.

Solved entries (count: 4):
Notebook: `Cc1c(Cl)c(=O)oc2cc(/N=C/c3ccc(O)cc3O)ccc12` , inhibition read as 60.2

The reported inhibition of the compound `Cc1cc(=O)oc2cc(NCc3ccccc3O)ccc12` was 36.1

Reported inhibition of `Cc1cc(=O)oc2cc(/N=C/c3ccccc3O)ccc12` : 44.8

Per the records, this compound ( `Cc1c(Cl)c(=O)oc2cc(/N=C/c3ccccc3O)ccc12` ) has inhibition equal to 49.3

Others:
GET /value?item= `Cc1c(C)c2ccc(/N=C/c3ccc(O)cc3O)cc2oc1=O` &field=inhibition returns 57.6

Looking up `Cc1c(C)c2ccc(NCc3ccccc3O)cc2oc1=O` , I found its inhibition recorded as 47.7

Please fill in: inhibition reported for `Cc1c(C)c2ccc(/N=C/c3ccccc3O)cc2oc1=O` = 53.9

Just so you know, measured inhibition for `Cc1c(C)c2ccc(/N=C/c3ccccc3O)cc2[nH]c1=O` came out at 49.1

The reported value for `Cc1cc(=O)[nH]c2cc(/N=C/c3ccccc3O)ccc12` in terms of inhibition is 35.6

----------
Assay: Permeability of the compound after 16 hrs by PAMPA
Type: ADME
Settings: read-out: Peff
value kind: Papp at 16 h (nm/s)
Reply numerically in nm/s, unit not repeated.

Given item `Cc1c(C)c2ccc(NCc3ccccc3O)cc2oc1=O` , the value recorded as its Papp at 16 h is 123

Others:
Sample C[C@]12CC[C@@H]3c4ccc(O)cc4CC[C@H]3[C@@H]1CC[C@@H]2O [ESTRADIOL] ; Papp at 16 h observed: 83.3

Papp at 16 h recorded for this molecule, `Cc1c(C)c2ccc(/N=C/c3ccc(O)cc3O)cc2oc1=O` , is 67

get_value(item= `O=c1oc2cc(/N=C/c3ccccc3O)ccc2c2c1CCC2` , readout=Papp at 16 h) returns 89

----------
Reported values of IC50 for individual entries
Molecular target: Amine oxidase [flavin-containing] B (Homo sapiens, UniProt P27338)
Sequence (P27338 whole entry): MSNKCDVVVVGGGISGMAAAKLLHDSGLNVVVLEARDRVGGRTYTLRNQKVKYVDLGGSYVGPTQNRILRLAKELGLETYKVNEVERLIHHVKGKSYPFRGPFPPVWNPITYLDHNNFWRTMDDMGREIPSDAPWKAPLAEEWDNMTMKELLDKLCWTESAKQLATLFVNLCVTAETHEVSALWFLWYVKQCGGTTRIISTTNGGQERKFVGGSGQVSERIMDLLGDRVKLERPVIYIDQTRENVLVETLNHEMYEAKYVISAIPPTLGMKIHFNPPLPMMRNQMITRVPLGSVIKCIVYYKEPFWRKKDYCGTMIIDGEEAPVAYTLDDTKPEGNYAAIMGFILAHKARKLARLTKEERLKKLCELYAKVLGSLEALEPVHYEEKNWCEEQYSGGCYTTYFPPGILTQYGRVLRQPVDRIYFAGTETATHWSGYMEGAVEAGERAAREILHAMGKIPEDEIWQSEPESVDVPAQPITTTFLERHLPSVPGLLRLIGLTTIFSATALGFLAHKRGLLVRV
Assay: Inhibition of human recombinant MAO-B using p-tyramine as substrate assessed as H2O2 production after 15 mins by fluorescence assay
Output spec: scalar in nM, unitless text.

Observed IC50 on Amine oxidase [flavin-containing] B (Homo sapiens, UniProt P27338), entry `O=c1oc2cc(/N=C/c3ccccc3O)ccc2c2c1CCCC2` , equals 841

Further cases:
Reported Amine oxidase [flavin-containing] B (Homo sapiens, UniProt P27338) IC50 for item `O=c1oc2cc(NCc3ccccc3O)ccc2c2c1CCC2` was 9330

Measured on Amine oxidase [flavin-containing] B (Homo sapiens, UniProt P27338), `O=c1oc2cc(/N=C/c3ccc(O)cc3O)ccc2c2c1CCC2` has a documented IC50 of 217

The reported IC50 value, Amine oxidase [flavin-containing] B (Homo sapiens, UniProt P27338), for `Cc1cc(=O)oc2cc(NCc3ccccc3O)ccc12` reads 20100

`O=c1oc2cc(NCc3ccccc3O)ccc2c2c1CCCC2` tested on Amine oxidase [flavin-containing] B (Homo sapiens, UniProt P27338) gave IC50: 1240

Lab note: molecule `O=c1oc2cc(/N=C/c3ccc(O)cc3O)ccc2c2c1CCCC2` tested on Amine oxidase [flavin-containing] B (Homo sapiens, UniProt P27338); recorded IC50 was 3420

Item `Cc1cc(=O)oc2cc(/N=C/c3ccccc3O)ccc12` ; assay system Amine oxidase [flavin-containing] B (Homo sapiens, UniProt P27338); IC50 reported as 723

The reported IC50 value, Amine oxidase [flavin-containing] B (Homo sapiens, UniProt P27338), for `Cc1cc(=O)[nH]c2cc(/N=C/c3ccccc3O)ccc12` reads 12300

Observed IC50, Amine oxidase [flavin-containing] B (Homo sapiens, UniProt P27338), `Cc1c(C)c2ccc(/N=C/c3ccccc3O)cc2[nH]c1=O` : 1680

Sample `O=c1oc2cc(/N=C/c3ccccc3O)ccc2c2c1CCC2` , system: Amine oxidase [flavin-containing] B (Homo sapiens, UniProt P27338). Its IC50 is 81

----------
Molecular target: Amine oxidase [flavin-containing] A (Homo sapiens)
Sequence (P21397 whole entry): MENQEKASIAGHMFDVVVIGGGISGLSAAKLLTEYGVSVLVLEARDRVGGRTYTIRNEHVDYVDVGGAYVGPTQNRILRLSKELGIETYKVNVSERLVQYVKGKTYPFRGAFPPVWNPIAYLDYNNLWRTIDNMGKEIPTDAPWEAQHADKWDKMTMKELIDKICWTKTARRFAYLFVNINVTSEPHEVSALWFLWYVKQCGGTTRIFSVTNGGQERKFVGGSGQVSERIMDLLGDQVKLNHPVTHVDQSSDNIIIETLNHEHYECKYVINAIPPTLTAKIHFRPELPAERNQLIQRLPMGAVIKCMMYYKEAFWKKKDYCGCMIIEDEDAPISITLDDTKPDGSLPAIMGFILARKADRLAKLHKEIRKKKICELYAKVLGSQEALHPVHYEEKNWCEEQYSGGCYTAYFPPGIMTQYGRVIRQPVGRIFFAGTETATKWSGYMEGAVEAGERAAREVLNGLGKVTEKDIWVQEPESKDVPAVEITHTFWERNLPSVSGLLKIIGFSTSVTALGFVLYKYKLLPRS
Assay: Inhibition of human recombinant MAO-A using p-tyramine as substrate assessed as H2O2 production at 100 uM after 15 mins by fluorescence assay
Settings: 0.25 h
Category key, based on recorded inhibition at 100 µM: range A (below 20%), range B (20% to below 50%), range C (50% or more)

INPUT: Which bin, given its inhibition at 100 µM, does `O=c1oc2cc(/N=C/c3ccc(O)cc3O)ccc2c2c1CCCC2` occupy?
OUTPUT: range B

INPUT: Which category fits this record: `O=c1oc2cc(NCc3ccccc3O)ccc2c2c1CCCC2`
OUTPUT: range C

INPUT: Categorize the following entry: `Cc1cc(=O)oc2cc(NCc3ccccc3O)ccc12`
OUTPUT: range B

INPUT: Note: place this compound into its band. Item: `O=c1oc2cc(NCc3ccccc3O)ccc2c2c1CCC2`
OUTPUT: range B

INPUT: Any idea which band `O=c1oc2cc(/N=C/c3ccccc3O)ccc2c2c1CCC2` is in?
OUTPUT: range A

INPUT: Using the reported inhibition at 100 µM, which band applies to `Cc1cc(=O)[nH]c2cc(/N=C/c3ccccc3O)ccc12` ?
OUTPUT: range C

Okay, now this compound:
INPUT: Would you mind sorting `Cc1cc(=O)oc2cc(/N=C/c3ccccc3O)ccc12` into the appropriate category?
OUTPUT: range B

----------
Biological target: Amyloid-beta precursor protein (Homo sapiens)
Experiment: Inhibition of amyloid beta (1 to 42) (unknown origin) self-induced aggregation at 20 uM after 46 to 48 hrs by thioflavin-T fluorescence method
value kind: inhibition (%)
Answer format: numeric, % implied, no suffix.

inhibition of `Cc1cc(=O)oc2cc(/N=C/c3ccc(Br)cc3O)ccc12` , assay on Amyloid-beta precursor protein (Homo sapiens), is 51.5

More entries:
Summary line: `O=c1oc2cc(NCc3ccccc3O)ccc2c2c1CCCC2` , Amyloid-beta precursor protein (Homo sapiens), reported inhibition = 43.7

GET /values?item= `O=c1oc2cc(/N=C/c3ccccc3O)ccc2c2c1CCC2` &system= Amyloid-beta precursor protein (Homo sapiens) returns inhibition: 52.9

----------
Documented inhibition across a set of compounds
Target: Amyloid-beta precursor protein (Homo sapiens)
Assay: Inhibition of amyloid beta (1 to 42) (unknown origin) self-induced aggregation at 20 uM after 46 to 48 hrs by thioflavin-T fluorescence method
The figure you give is taken to be in %; do not add the unit.

Here is how some compounds turned out for inhibition.
Data point: `O=c1oc2cc(/N=C/c3ccc(O)cc3O)ccc2c2c1CCC2` ; inhibition = 56.4

Lab book: inhibition of `Cc1ccc(/C=N/c2ccc3c(C)cc(=O)oc3c2)c(O)c1` noted as 49.4

New cases:
For record `Cc1cc(=O)oc2cc(/N=C/c3ccc(O)cc3O)ccc12` the listed inhibition is 50.3

Lab note: measured inhibition of `Cc1cc(=O)[nH]c2cc(NCc3ccccc3O)ccc12` was 32.6

# inhibition of `O=c1oc2cc(NCc3ccccc3O)ccc2c2c1CCC2` = 41.6

Given item `COc1ccc(/C=N/c2ccc3c(C)cc(=O)oc3c2)c(O)c1` , the value recorded as its inhibition is 50.2

----------
Test: Permeability of the compound after 16 hrs by PAMPA
Format: ADME
Conditions: read-out: Peff
value kind: Papp at 16 h (×10⁻⁶ cm/s)
Quick reminder: number only, in ×10⁻⁶ cm/s, skip the unit.

Solved entries (count: 4):
Value of measured Papp at 16 h for the entry `Cc1c(C)c2ccc(/N=C/c3ccccc3O)cc2oc1=O` : 10.6

Papp at 16 h for `C[C@]12C[C@H](O)[C@H]3[C@@H](CCC4=CC(=O)CC[C@@]43C)[C@@H]1CC[C@@H]2C(=O)CO` is 1.09

Value of Papp at 16 h reported for the compound `CN1C(C(=O)Nc2ccccn2)=C(O)c2ccccc2S1(=O)=O` is 1.72

Short answer for `O=c1oc2cc(/N=C/c3ccc(O)cc3O)ccc2c2c1CCC2` : Papp at 16 h was 4.7

// below: Papp at 16 h requested for another compound
Entry under test: `NCCc1ccc(O)c(O)c1` . Its Papp at 16 h was 0.83

----------
Target: UniProtKB P05067
Assay: Inhibition of amyloid beta (1 to 42) (unknown origin) self-induced aggregation at 20 uM after 46 to 48 hrs by thioflavin-T fluorescence method
// reported inhibition for each item listed
Numeric answer only, unit % assumed.

Given item `O=c1oc2cc(/N=C/c3ccc(O)cc3O)ccc2c2c1CCCC2` , the value recorded as its inhibition is 58.5

Others:
The molecule listed as `Cc1c(Cl)c(=O)oc2cc(NCc3ccccc3O)ccc12` has a reported inhibition of 47.6

Per the records, this molecule ( `O=c1oc2cc(/N=C/c3ccccc3O)ccc2c2c1CCCC2` ) has inhibition equal to 53.7
